- Tested on: P-4E-BP1 (T37/46)
- Assay name: Cell based AlphaLISA assay, inhibition of P-4E-BP1 (T37/46) in MDA-MB-468 cells (mTORC1 substrate)
- Experimental setup: Homo sapiens, 4 h, AlphaLisa, two to four hours at 37° C., read-out: pIC50 for Inhibition of mTORC1 and mTORC2 Substrate Phosphorylation P-4E-BP1-(T37/46) (converted)
Readout type: IC50

Query string: What value of IC50 on P-4E-BP1 (T37/46) does CO[C@H]1C[C@@H]2CC[C@@H](C)[C@@](O)(O2)C(=O)C(=O)N2CCCC[C@H]2C(=O)O[C@H]([C@H](C)C[C@@H]2CC[C@@H](OC(=O)NCCOCCOCCOCCOCCOCCOCCOCCOCCC(=O)NCCS(=O)(=O)c3ccc(C(=O)N4CCOc5ccc(-c6ccc(N)nc6)cc5C4)c(C)c3)[C@H](OC)C2)CC(=O)[C@H](C)/C=C(\C)[C@@H](O)[C@@H](OC)C(=O)[C@H](C)C[C@H](C)/C=C/C=C/C=C/1C [Example 40] have?
Result string: < 3.16 nM

Query string: What value of IC50 on P-4E-BP1 (T37/46) does CO[C@H]1C[C@@H]2CC[C@@H](C)[C@@](O)(O2)C(=O)C(=O)N2CCCC[C@H]2C(=O)O[C@H]([C@H](C)C[C@@H]2CC[C@@H](OC(=O)NCCOCCOCCOCCOCCOCCOCCOCCOCCC(=O)NCCS(=O)(=O)c3ccc(C(=O)N4CCOc5ccc(-c6ccc(N)nc6)cc5C4)c(C)c3)[C@H](OC)C2)C[C@@H](OC)[C@H](C)/C=C(\C)[C@@H](O)[C@@H](OC)C(=O)[C@H](C)C[C@H](C)/C=C/C=C/C=C/1C [Example 42] have?
Result string: < 3.16 nM

Query string: What value of IC50 on P-4E-BP1 (T37/46) does CO[C@H]1C[C@@H]2CC[C@@H](C)[C@@](O)(O2)C(=O)C(=O)N2CCCC[C@H]2C(=O)O[C@H]([C@H](C)C[C@@H]2CC[C@@H](OC(=O)NCc3cnc(N4CCN(C(=O)CCOCCN5CCN(C(=O)CCC(=O)N6CCc7cc(Cn8nc(-c9ccc%10oc(N)nc%10c9)c9c(N)ncnc98)ccc7C6)CC5)CC4)nc3)[C@H](OC)C2)C[C@@H](O)[C@H](C)/C=C(\C)[C@@H](O)[C@@H](OC)C(=O)[C@H](C)C[C@H](C)/C=C/C=C/C=C/1C [Example 132] have?
Result string: < 3.16 nM

###

- System: P-Akt (S473)
- Assay name: Cell based AlphaLISA assay, inhibition of P-Akt (S473) in MDA-MB-468 cells (mTORC2 substrate)
- Experimental setup: Homo sapiens, 4 h, AlphaLisa, two to four hours at 37° C., read-out: pIC50 for Inhibition of mTORC1 and mTORC2 Substrate Phosphorylation p-AKT1/2/3-(S473) (converted)
Can you tell me IC50 for the items I'm about to list?

Query string: Given CO[C@H]1C[C@@H]2CC[C@@H](C)[C@@](O)(O2)C(=O)C(=O)N2CCCC[C@H]2C(=O)O[C@H]([C@H](C)C[C@@H]2CC[C@@H](OC(=O)NCCOCCOCCOCCOCCOCCOCCOCCOCCC(=O)NCc3ccc(Cn4nc(-c5ccc6oc(N)nc6c5)c5c(N)ncnc54)cc3)[C@H](OC)C2)C[C@@H](OC)[C@H](C)/C=C(\C)[C@@H](O)[C@@H](OC)C(=O)[C@H](C)C[C@H](C)/C=C/C=C/C=C/1C [Example 37] , state its recorded IC50.
Result string: > 1000 nM

Query string: Given CO[C@H]1C[C@@H]2CC[C@@H](C)[C@@](O)(O2)C(=O)C(=O)N2CCCC[C@H]2C(=O)O[C@H]([C@H](C)C[C@@H]2CC[C@@H](OC(=O)NCc3cnc(N4CCN(C(=O)CCOCCN5CCN(c6ncc(C(=O)NCCS(=O)(=O)c7ccc(C(=O)N8CCOc9ccc(-c%10ccc(N)nc%10)cc9C8)c(C)c7)cn6)CC5)CC4)nc3)[C@H](OC)C2)C[C@@H](O)[C@H](C)/C=C(\C)[C@@H](O)[C@@H](OC)C(=O)[C@H](C)C[C@H](C)/C=C/C=C/C=C/1C [Example 125] , state its recorded IC50.
Result string: 3.16 to 31.6 nM
